This section presents molecules with their documented IC50 values.
assayed system: PRMT5 (Homo sapiens, UniProt O14744)
Construct: purchased Viva (custom protein)
Sequence (O14744 whole entry): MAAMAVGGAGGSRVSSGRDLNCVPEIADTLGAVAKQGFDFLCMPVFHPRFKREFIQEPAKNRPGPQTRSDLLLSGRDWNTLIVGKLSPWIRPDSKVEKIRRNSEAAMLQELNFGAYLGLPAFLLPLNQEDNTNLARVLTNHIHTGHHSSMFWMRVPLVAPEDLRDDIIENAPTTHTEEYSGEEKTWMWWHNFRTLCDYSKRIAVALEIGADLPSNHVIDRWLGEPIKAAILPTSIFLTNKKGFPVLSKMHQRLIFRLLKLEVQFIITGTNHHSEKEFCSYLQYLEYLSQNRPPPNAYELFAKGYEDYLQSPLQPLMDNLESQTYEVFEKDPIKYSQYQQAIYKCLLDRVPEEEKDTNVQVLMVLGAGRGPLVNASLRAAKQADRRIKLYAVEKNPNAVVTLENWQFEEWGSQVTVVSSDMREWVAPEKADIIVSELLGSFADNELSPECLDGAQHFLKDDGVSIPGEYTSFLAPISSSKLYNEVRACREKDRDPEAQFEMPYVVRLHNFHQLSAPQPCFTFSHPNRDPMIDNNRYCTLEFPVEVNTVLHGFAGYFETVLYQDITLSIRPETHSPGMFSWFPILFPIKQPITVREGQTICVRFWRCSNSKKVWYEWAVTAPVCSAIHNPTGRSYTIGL
Sequence (Q9BQA1 whole entry partner): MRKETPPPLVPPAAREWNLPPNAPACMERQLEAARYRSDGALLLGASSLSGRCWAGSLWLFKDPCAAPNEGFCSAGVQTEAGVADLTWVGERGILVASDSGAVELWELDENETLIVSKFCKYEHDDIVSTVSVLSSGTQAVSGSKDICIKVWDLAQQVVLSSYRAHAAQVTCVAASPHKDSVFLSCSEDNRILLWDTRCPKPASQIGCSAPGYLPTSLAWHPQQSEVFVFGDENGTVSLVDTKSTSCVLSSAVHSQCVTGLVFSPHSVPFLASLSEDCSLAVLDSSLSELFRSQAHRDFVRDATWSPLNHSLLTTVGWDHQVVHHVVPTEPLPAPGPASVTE
protocol description: PRMT5 biochemical IC50 assay with no cofactor
measurement parameters: PRMT5, no cofactor; read-out: No Cofactor/rel IC50

The following molecules have reported results that may help.
[H][C@]1([C@]2([H])C[C@]3(C[C@H](O)C3)C2)CC[C@H](C)CN1C(=O)C(=O)Nc1cnc(N)c(C)c1 (single isomer, unassigned)	> 500 nM
Cc1cc(NC(=O)C(=O)N2CCCC[C@@H]2c2cccc(N(C)C)c2)cnc1N (single isomer, unassigned)	> 500 nM

Request: Which IC50 value belongs to C[C@H]1CC[C@H](c2ccc(F)cc2)N(C(=O)C(=O)Nc2cnc(N)c(OC(F)F)c2)C1 ?
Response: 50 to 500 nM

Request: Which IC50 value belongs to C[C@H]1CC[C@@H](c2cc(F)cc(Cl)c2)N(C(=O)C(=O)Nc2cncc(C(N)=O)c2)C1 (single isomer, unassigned) ?
Response: > 500 nM

Request: Which IC50 value belongs to Cc1ccc([C@H]2CC[C@@H](C)CN2C(=O)C(=O)Nc2cnc(N)c(C)c2)nc1 (racemic) ?
Response: 50 to 500 nM

Request: Which IC50 value belongs to COc1ncc(NC(=O)C(=O)N2C[C@H](C)CC[C@H]2c2cscn2)cc1C(N)=O (single isomer, unassigned) ?
Response: 50 to 500 nM

Request: Which IC50 value belongs to Cc1cc(NC(=O)C(=O)N2CC(C)CC(C)C2c2ccccc2)cnc1N (mixture of isomers) ?
Response: 50 to 500 nM

Request: Which IC50 value belongs to CO[C@@H]1C[C@@H](c2ccc3scnc3c2)N(C(=O)C(=O)Nc2cnc(N)c(C)c2)C[C@@H]1C (single isomer, unassigned) ?
Response: > 500 nM
